Parameter: pIC50. Scope: all listed entries.
# targetOrSystem: elastase from human neutrophil (Homo sapiens, UniProt P08246)
# Construct: using elastase from human neutrophil; from tissue; host or cells: human neutrophil
# testProtocol: Inhibitory effect on elastase (spectrophotometric method, substrate Suc-Ala-Pro-Ala-pNA)
# Type: biochemical
# studyConditions: Y represents an oxygen atom; pH 8.0, 37° C., 30 minutes; read-out: Inhibitory Effect on Elastase, IC50
Give only the number. pIC50 is defined as minus log10 of concentration in molar units.

Some compounds with known pIC50 results, for comparison:
compound | pIC50
N=C(N)Nc1ccc(SCc2cc(Cl)cc(OC(=O)c3ccc(NC(=N)N)cc3)c2)cc1 [Example 120] | 5.22
CN(C)S(=O)(=O)c1ccc(OC(=O)c2ccc(NC(=N)N)cc2)cc1Cl [Example 90] | 3.85
CC(=O)c1cc(OC(=O)c2ccc(NC(=N)N)cc2)cc(OC(=O)c2ccc(NC(=N)N)cc2)c1 [Example 66] | 4.14
N=C(N)Nc1ccc(C(=O)Oc2cc(C(F)(F)F)cc(C(F)(F)F)c2)cc1 [Example 47] | 5.49

Task item: Which pIC50 value belongs to N=C(N)Nc1ccc(C(=O)Oc2cccc(F)c2)cc1 [Example 29] ?
Reply: 4.68

Task item: For CCN(CC)S(=O)(=O)c1ccc(OC(=O)c2ccc(NC(=N)N)cc2)cc1Cl [Example 94] , what is its reported pIC50?
Reply: 4.66

----------
# targetOrSystem: elastase from human neutrophil (Homo sapiens)
# Construct: using elastase from human neutrophil; from tissue; host or cells: human neutrophil
# Sequence (P08246 30-247 limits assumed): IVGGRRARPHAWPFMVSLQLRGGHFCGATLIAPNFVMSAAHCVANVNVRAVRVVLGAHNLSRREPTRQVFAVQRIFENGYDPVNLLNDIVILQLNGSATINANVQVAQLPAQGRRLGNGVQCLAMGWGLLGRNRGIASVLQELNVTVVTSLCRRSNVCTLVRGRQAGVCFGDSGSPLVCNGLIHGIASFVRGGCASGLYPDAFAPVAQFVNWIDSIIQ
# testProtocol: Inhibitory effect on elastase (spectrophotometric method, substrate Suc-Ala-Pro-Ala-pNA)
# Assay type: biochemical
# studyConditions: at 100 μM; Y represents an oxygen atom
assayReadout: inhibition at 100 µM (%)
Report the figure in % without appending any unit label.

structureSmilesString | assayReadout | valueMeasured
N=C(N)Nc1ccc(C(=O)Oc2ccc(C(=O)c3ccccc3)c(Cl)c2Cl)cc1 | inhibition at 100 µM | 50.5
COC(=O)C=Cc1ccc(OC(=O)c2ccc(NC(=N)N)cc2)cc1 | inhibition at 100 µM | 31
Cc1cccc(OC(=O)c2ccc(NC(=N)N)cc2)c1C | inhibition at 100 µM | 5.9
N=C(N)Nc1ccc(C(=O)Oc2cc(C(=O)O)cc(C(=O)O)c2)cc1 | inhibition at 100 µM | 25
N=C(N)Nc1ccc(C(=O)Oc2cccc([N+](=O)[O-])c2)cc1 | inhibition at 100 µM | 87
CCc1cccc(OC(=O)c2ccc(NC(=N)N)cc2)c1 | inhibition at 100 µM | 39.6

Task item: Returns the measured inhibition at 100 µM for the input molecule. Input: `Cc1ccccc1OC(=O)c1ccc(NC(=N)N)cc1`
Reply: 20.2

Task item: Please report the recorded inhibition at 100 µM for `N=C(N)Nc1ccc(C(=O)Oc2ccc(C(=O)c3ccccc3)cc2)cc1` .
Reply: 33.3

Task item: Could you tell me which inhibition at 100 µM is on file for `CCS(=O)(=O)Oc1cc(COC)cc(OC(=O)c2ccc(NC(=N)N)cc2)c1` ?
Reply: 66

----------
# targetOrSystem: elastase from human neutrophil (Homo sapiens)
# Construct: using elastase from human neutrophil; from tissue; host or cells: human neutrophil
# testProtocol: Inhibitory effect on elastase (spectrophotometric method, substrate Suc-Ala-Pro-Ala-pNA)
# Assay type: biochemical
# studyConditions: Y represents an oxygen atom; pH 8.0, 37° C., 30 minutes; read-out: Inhibitory Effect on Elastase, IC50
assayReadout: log10(IC50) (log10 of the value in µM)
Please be aware that the numbers have been log10-transformed from IC50 in µM.

Record excerpt, results attached:
compound | targetOrSystem | assayReadout | valueMeasured
CS(=O)(=O)Nc1ccc(Cl)c(OC(=O)c2ccc(NC(=N)N)cc2)c1 | elastase from human neutrophil (Homo sapiens) | log10(IC50) | 0.93
CC(C)C(=O)c1ccc(Cl)cc1OC(=O)c1ccc(NC(=N)N)cc1 | elastase from human neutrophil (Homo sapiens) | log10(IC50) | 0.81

Task item: Can you look up the measured log10(IC50) of `N=C(N)Nc1ccc(C(=O)Oc2cc(Cl)cc(C(=O)Nc3cccnc3)c2)cc1` for me?
Reply: -0.03

Task item: What log10(IC50) value was documented for this compound, `COC(=O)c1ccc(Cl)cc1OC(=O)c1ccc(NC(=N)N)cc1` ?
Reply: 0.76

Task item: What log10(IC50) value was documented for this compound, `N=C(N)Nc1ccc(C(=O)Oc2ccccc2Br)cc1` ?
Reply: 1.20

Task item: Return reported log10(IC50); argument: `N=C(N)Nc1ccc(C(=O)Oc2cccc(OC(=O)c3ccc(NC(=N)N)cc3)c2)cc1`
Reply: 1.18

Task item: Can you look up the measured log10(IC50) of `COC(=O)c1cccc(OC(=O)c2ccc(NC(=N)N)cc2)c1Cl` for me?
Reply: 0.60

----------
# targetOrSystem: elastase from human neutrophil (Homo sapiens)
# Construct: using elastase from human neutrophil; from tissue; host or cells: human neutrophil
# Sequence (P08246 30-247 limits assumed): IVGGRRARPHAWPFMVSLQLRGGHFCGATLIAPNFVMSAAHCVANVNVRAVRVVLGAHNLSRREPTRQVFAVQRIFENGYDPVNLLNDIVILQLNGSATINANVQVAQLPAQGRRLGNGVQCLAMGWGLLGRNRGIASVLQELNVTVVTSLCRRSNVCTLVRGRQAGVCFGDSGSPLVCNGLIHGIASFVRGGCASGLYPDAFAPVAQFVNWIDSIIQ
# testProtocol: Inhibitory effect on elastase (spectrophotometric method, substrate Suc-Ala-Pro-Ala-pNA)
# Type: biochemical
# studyConditions: at 50 μg/ml; Y represents a sulfur atom; read-out: Elastase Inhibitory Effect, Inhibition %
assayReadout: inhibition at 50 µg/mL (%)
Please state the figure in %; there is no need to write the unit.

Task item: Form entry - test system: elastase from human neutrophil (Homo sapiens); read-out: inhibition at 50 µg/mL; compound: N=C(N)Nc1ccc(C(=O)Sc2ccccc2)cc1 [Example 124]
Reply: 94

Task item: Lab note: need inhibition at 50 µg/mL for N=C(N)Nc1ccc(C(=O)Sc2ccc(F)cc2)cc1 [Example 131] on elastase from human neutrophil (Homo sapiens), anyone have it?
Reply: 83

Task item: GET /values?readout=inhibition at 50 µg/mL&system=elastase from human neutrophil (Homo sapiens)&item= CCOC(=O)c1ccc(SC(=O)c2ccc(NC(=N)N)cc2)cc1 [Example 142]
Reply: 69.1

Task item: I'm curious: which inhibition at 50 µg/mL was measured for N=C(N)Nc1ccc(C(=O)Sc2cccc(Cl)c2)cc1 [Example 133] tested on elastase from human neutrophil (Homo sapiens)?
Reply: 81.2

Task item: Entry COC(=O)c1ccccc1SC(=O)c1ccc(NC(=N)N)cc1 [Example 141] , system elastase from human neutrophil (Homo sapiens): what inhibition at 50 µg/mL was measured?
Reply: 96.3

----------
# targetOrSystem: elastase from human neutrophil (Homo sapiens)
# Construct: using elastase from human neutrophil; from tissue; host or cells: human neutrophil
# testProtocol: Inhibitory effect on elastase (spectrophotometric method, substrate Suc-Ala-Pro-Ala-pNA)
# Assay type: biochemical
# studyConditions: Y represents an oxygen atom; pH 8.0, 37° C., 30 minutes; read-out: Inhibitory Effect on Elastase, IC50
pIC50: −log10 of the molar value. Where a name gives a salt, the structure may show the parent alone.
Outcome: T for pIC50 of at least 5; F for anything lower.

Below, 6 molecules whose answers are already recorded.
molecule | targetOrSystem | class
CCN(CC)S(=O)(=O)c1ccc(OC(=O)c2ccc(NC(=N)N)cc2)c(F)c1 | elastase from human neutrophil (Homo sapiens) | F
N=C(N)Nc1ccc(C(=O)Oc2cc(Cl)cc(OS(=O)(=O)c3ccccc3)c2)cc1 | elastase from human neutrophil (Homo sapiens) | T
CCN(CC)S(=O)(=O)c1cccc(OC(=O)c2ccc(NC(=N)N)cc2)c1 | elastase from human neutrophil (Homo sapiens) | F
CCCOc1ccc(C(C)=O)c(OC(=O)c2ccc(NC(=N)N)cc2)c1 | elastase from human neutrophil (Homo sapiens) | F
N=C(N)Nc1ccc(C(=O)Oc2ccc(C(=O)c3ccccc3)cc2Cl)cc1 | elastase from human neutrophil (Homo sapiens) | F
N=C(N)Nc1ccc(C(=O)Oc2cccc(F)c2F)cc1 | elastase from human neutrophil (Homo sapiens) | T

Next molecule, please.
Task item: Is it the case that N=C(N)Nc1ccc(C(=O)Oc2cccc(C(=O)O)c2Cl)cc1 [Example 147, hydrobromide] has pIC50 reaching or exceeding 5?
Reply: F
